Cited source for all entries: paper PMC5286460

- method: UV–vis absorption and fluorescence spectroscopy
- Type: physicochemical
- experimental context: pH 7.4 phosphate buffer, 10% DMSO
measured attribute: brightness
Enter a number only.

COC(=O)c1ccccc1C1=c2cc3c4c(c2Oc2c1ccc1cccc(OC)c21)CCC[N+]=4CCC3.[Cl-] :: 2022
COC(=O)c1ccccc1-c1c2ccc(=[N+](C)C)cc-2oc2c1ccc1cccc(OC)c12.[Cl-] :: 2094
COC(=O)c1ccccc1C1=c2cc3c4c(c2Oc2c1ccc1cccc(N)c21)CCC[N+]=4CCC3.[Cl-] :: 85

Okay, next one:
Provide only the value of recorded brightness for `COC(=O)c1ccccc1-c1c2ccc(=N)cc-2oc2c1ccc1cccc(N)c12.Cl` 25
